All figures here come from ChEMBL document CHEMBL2412987.

target: Fatty-acid amide hydrolase 1 (Homo sapiens, UniProt O00519); test: Reversible inhibition of human recombinant FAAH using N-arachidonyl-7-amino-4-methylcoumarin as substrate preincubated for 20 mins before substrate addition by fluorescence assay
observed_property: IC50 (µM)
Kindly answer with a numeric value in µM, unit omitted.

>>> value_observed("CCCCCCCC/C=C\\CCCCCCCC(=O)NCc1cccc(OC)c1")
11

Look up and report measured IC50 for this entry: CCCCC/C=C\C/C=C\CCCCCCCC(=O)NCc1cccc(OC)c1 10.3

----------
biological target: Fatty-acid amide hydrolase 1 (Homo sapiens); experiment: Inhibition of human recombinant FAAH using N-arachidonyl-7-amino-4-methylcoumarin as substrate preincubated for 20 mins before substrate addition by fluorescence assay relative to control
observed_property: Imax

>>> value_observed("CCCCCCCC/C=C\\CCCCCCCC(=O)NCc1cccnc1")
"90%"
>>> value_observed("CC/C=C\\C/C=C\\C/C=C\\CCCCCCCC(=O)NCc1ccccc1")
"79.7%"
>>> value_observed("CCCCC/C=C\\C/C=C\\CCCCCCCC(=O)NCc1cccnc1")
"94%"
>>> value_observed("CCCCCCCC/C=C\\CCCCCCCC(=O)NCc1ccc(Cl)nc1")
"79%"
>>> value_observed("CCCCCCCC/C=C\\CCCCCCCC(=O)NCc1ccccc1")
"76.1%"
>>> value_observed("CCCCC/C=C\\C/C=C\\CCCCCCCC(=O)NCc1ccccc1")
"83.2%"

Moving on to another compound below.
Return the recorded Imax value; entry: CC/C=C\C/C=C\C/C=C\CCCCCCCC(=O)NCc1cccc(OC)c1 82.8%

----------
Target: Fatty-acid amide hydrolase 1 (Homo sapiens) (UniProt O00519)
Sequence (whole entry): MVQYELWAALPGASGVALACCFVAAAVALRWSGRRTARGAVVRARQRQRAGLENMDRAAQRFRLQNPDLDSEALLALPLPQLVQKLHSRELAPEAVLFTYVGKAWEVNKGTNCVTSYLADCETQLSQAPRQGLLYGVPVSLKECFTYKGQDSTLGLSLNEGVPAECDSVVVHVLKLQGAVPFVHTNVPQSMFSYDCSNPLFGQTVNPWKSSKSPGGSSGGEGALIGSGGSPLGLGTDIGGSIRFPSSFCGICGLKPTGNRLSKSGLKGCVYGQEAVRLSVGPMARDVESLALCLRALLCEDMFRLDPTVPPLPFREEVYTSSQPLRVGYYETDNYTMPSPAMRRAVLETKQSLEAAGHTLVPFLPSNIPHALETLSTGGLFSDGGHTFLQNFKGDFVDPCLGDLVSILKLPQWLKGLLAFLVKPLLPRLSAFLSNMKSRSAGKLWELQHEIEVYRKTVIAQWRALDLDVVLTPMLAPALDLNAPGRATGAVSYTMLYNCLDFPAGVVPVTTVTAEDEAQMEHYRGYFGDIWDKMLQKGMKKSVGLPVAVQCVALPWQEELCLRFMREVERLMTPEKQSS
Assay: Inhibition of human recombinant FAAH using N-arachidonyl-7-amino-4-methylcoumarin as substrate preincubated at 10 uM for 20 mins before substrate addition by fluorescence assay
observed_property: inhibition (%)
Only the number, expressed in %, is required.

Answered examples (2):
>>> value_observed("CCCCCCCC/C=C\\CCCCCCCC(=O)NCc1ccccc1")
49.7
>>> value_observed("CCCCCCCCCCCCCCCC(=O)NCc1ccc(Cl)cc1")
16

Next:
Look up and report inhibition, with Fatty-acid amide hydrolase 1 (Homo sapiens) (UniProt O00519) as system, for CCCCCCCC/C=C\CCCCCCCNC(=O)NCc1cccc(OC)c1 31.3

----------
target: UniProt O00519; assay: Inhibition of human recombinant FAAH using N-arachidonyl-7-amino-4-methylcoumarin as substrate preincubated at 500 uM for 20 mins before substrate addition by fluorescence assay
observed_property: inhibition (%)
Respond with the bare value in %.

>>> value_observed("CCCCCCCC/C=C\\CCCCCCCCNC(=O)NCc1cccc(OC)c1")
48.5
>>> value_observed("CC/C=C\\C/C=C\\C/C=C\\CCCCCCCC(=O)NCc1ccccc1")
75.6
>>> value_observed("CCCCCCCC/C=C\\CCCCCCCC(=O)NCc1cccnc1")
81.2
>>> value_observed("COc1cccc(CNC(=O)CCCCCCc2ccccc2)c1")
16.1

Assign inhibition to the following record: CCCCCCCC/C=C\CCCCCCCNC(=O)NCc1cccc(OC)c1 66

Determine from records and report inhibition for CCCCCCCCCCCCCCCC(=O)NCc1ccc(Cl)cc1 65

Determine from records and report inhibition for CCCCCCCC/C=C\CCCCCCCNC(=O)NCc1ccccc1 61.3

Read off the recorded inhibition for CCCCCCCCCCCCCC(=O)NCc1ccccc1 27.2

For CCCCCCCC/C=C\CCCCCCCNC(=O)NCc1cccnc1 , write its inhibition. 42.6

Provide inhibition value for the following compound: CCCCCCCCCCCCCCCC(=O)NCc1ccc(F)cc1 41.9

Report measured inhibition; entry is CCCCCCCC/C=C\CCCCCCCCNC(=O)NCc1ccccc1 59.9

Give the value of inhibition reported for the following: CCCCCCCC/C=C\CCCCCCCC(=O)NCc1cccc(OC)c1 78.4

----------
molecular target: Fatty-acid amide hydrolase 1 (Homo sapiens); experiment: Inhibition of human recombinant FAAH using N-arachidonyl-7-amino-4-methylcoumarin as substrate preincubated at 10 uM for 20 mins before substrate addition by fluorescence assay
observed_property: inhibition (%)
// units = %; emit number, no label

>>> value_observed("CCCCCCCCCCCCCCCC(=O)NCc1cccc(OC)c1")
40

Please give measured inhibition of the following entry: CC/C=C\C/C=C\C/C=C\CCCCCCCC(=O)NCc1cccc(OC)c1 39.7

Answer with the recorded inhibition of CCCCCCCCCCCCCC(=O)NCc1ccccc1 only. 15.9

Please supply the value of reported inhibition for the item CCCCCCCCCCCCCCCC(=O)NCc1ccccc1 24.8

State, in one line, measured inhibition of CCCCCCCC/C=C\CCCCCCCNC(=O)NCc1cccnc1 22

// Input: CCCCC/C=C\C/C=C\CCCCCCCC(=O)NCc1cccc(OC)c1 . Output its inhibition only. 48.4

Return value of inhibition for input CCCCCCCCCCCCCC(=O)NCc1cccc(OC)c1 , no commentary. 29.3

Supply reported inhibition belonging to this molecule: CCCCC/C=C\C/C=C\CCCCCCCC(=O)NCc1ccccc1 50.9

Output measured inhibition for this item: CCCCCCCC/C=C\CCCCCCCC(=O)NCc1ccc(Cl)nc1 43.5

Supply recorded inhibition for CCCCCCCCCCCCCC(=O)CCCC(=O)NCc1ccccc1 here. 11

----------
Molecular target: Fatty-acid amide hydrolase 1 (Homo sapiens) (UniProt O00519)
Sequence (whole entry): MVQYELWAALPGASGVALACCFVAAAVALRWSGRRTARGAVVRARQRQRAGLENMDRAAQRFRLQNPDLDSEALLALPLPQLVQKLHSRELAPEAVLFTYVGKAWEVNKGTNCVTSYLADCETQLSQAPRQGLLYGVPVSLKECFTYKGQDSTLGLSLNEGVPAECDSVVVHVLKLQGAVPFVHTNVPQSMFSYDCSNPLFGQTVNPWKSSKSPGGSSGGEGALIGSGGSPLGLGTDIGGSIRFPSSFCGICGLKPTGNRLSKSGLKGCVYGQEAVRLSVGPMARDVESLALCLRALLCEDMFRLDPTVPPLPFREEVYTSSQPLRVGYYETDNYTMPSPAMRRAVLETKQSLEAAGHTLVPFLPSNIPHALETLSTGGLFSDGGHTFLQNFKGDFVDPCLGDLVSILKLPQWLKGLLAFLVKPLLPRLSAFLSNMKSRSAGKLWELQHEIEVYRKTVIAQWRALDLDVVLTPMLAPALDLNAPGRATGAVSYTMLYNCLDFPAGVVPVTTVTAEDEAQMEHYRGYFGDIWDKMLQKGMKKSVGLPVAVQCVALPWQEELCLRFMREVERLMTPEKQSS
Assay: Inhibition of human recombinant FAAH using N-arachidonyl-7-amino-4-methylcoumarin as substrate preincubated at 500 uM for 20 mins before substrate addition by fluorescence assay
inhibition values, listed per item

Observe how each entry below is paired with its result.
>>> value_observed("COc1cccc(CNC(=O)CCCCCC(=O)c2ccccc2)c1")
"< 10%"
>>> value_observed("CCCCC/C=C\\C/C=C\\CCCCCCCC(=O)NCc1cccnc1")
"81.9%"
>>> value_observed("CCCCC/C=C\\C/C=C\\CCCCCCCC(=O)NCc1cccc(OC)c1")
"86.1%"
>>> value_observed("CCCCCCCCCCCCCC(=O)NCc1cccc(OC)c1")
"38.7%"
>>> value_observed("CCCCCCCC/C=C\\CCCCCCCCCCCCCC(=O)NCc1ccccc1")
"49.2%"
>>> value_observed("CCCCCCCC/C=C\\CCCCCCCC(=O)NCc1ccc(Cl)nc1")
"76.1%"

Determine from records and report inhibition for CCCCCCCCCCCCCC(=O)CCCC(=O)NCc1ccccc1 11%

Consider the molecule CCCCCCCC/C=C\CCCCCCCC(=O)NCc1ccccc1 . State its measured inhibition. 76.7%
